Biological target: Prostaglandin G/H synthase 2 (Mus musculus) (UniProt Q05769)
Sequence (Q05769 whole entry): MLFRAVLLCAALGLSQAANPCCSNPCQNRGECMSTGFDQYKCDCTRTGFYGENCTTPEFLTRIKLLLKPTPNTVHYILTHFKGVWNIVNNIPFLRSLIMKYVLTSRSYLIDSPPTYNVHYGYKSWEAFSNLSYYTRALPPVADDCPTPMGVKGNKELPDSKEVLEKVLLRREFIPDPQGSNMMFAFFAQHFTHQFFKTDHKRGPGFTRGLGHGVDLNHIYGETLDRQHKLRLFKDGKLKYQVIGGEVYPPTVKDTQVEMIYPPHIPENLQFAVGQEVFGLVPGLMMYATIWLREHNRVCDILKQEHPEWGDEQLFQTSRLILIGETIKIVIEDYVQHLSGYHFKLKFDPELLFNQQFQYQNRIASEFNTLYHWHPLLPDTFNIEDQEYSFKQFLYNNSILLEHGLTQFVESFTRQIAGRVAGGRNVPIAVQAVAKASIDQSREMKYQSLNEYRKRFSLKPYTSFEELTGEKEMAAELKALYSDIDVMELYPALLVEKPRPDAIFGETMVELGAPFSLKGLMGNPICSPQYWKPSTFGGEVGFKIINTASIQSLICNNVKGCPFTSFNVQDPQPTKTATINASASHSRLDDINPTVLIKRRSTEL
Assay: Inhibition of LPS-induced COX-2 in mouse J774 cells using arachidonic acid as substrate assessed as inhibition of prostaglandin E2 production at 10 uM preincubated for 15 mins followed by substrate addition measured after 30 mins by RIA
Type: cell-based
assay-endpoint: inhibition (%)
Express it in %; write the number only.

{"compound": "Cc1c(CC(=O)NC(CCO[N+](=O)[O-])C(=O)O)cc(-c2ccc(S(C)(=O)=O)cc2)n1-c1ccc(F)cc1 (racemic)", "inhibition / %": 89}
{"compound": "Cc1c(CC(=O)NCCCO)cc(-c2ccc(S(C)(=O)=O)cc2)n1-c1ccc(F)cc1", "inhibition / %": 100}
{"compound": "Cc1c(CC(=O)NCCCO[N+](=O)[O-])cc(-c2ccc(S(C)(=O)=O)cc2)n1-c1cccc(F)c1", "inhibition / %": 100}

Request: Query the reported inhibition for Prostaglandin G/H synthase 2 (Mus musculus) (UniProt Q05769); item: `Cc1c(CC(=O)NCCO[N+](=O)[O-])cc(-c2ccc(S(C)(=O)=O)cc2)n1-c1ccc(F)cc1`
Response: 100

Request: Identify the measured inhibition of Cc1c(CC(=O)NC(CCO)C(=O)O)cc(-c2ccc(S(C)(=O)=O)cc2)n1-c1cccc(F)c1 (racemic) for Prostaglandin G/H synthase 2 (Mus musculus) (UniProt Q05769).
Response: 79

Request: Identify the measured inhibition of Cc1c(CC(=O)NC(CO[N+](=O)[O-])C(=O)O)cc(-c2ccc(S(C)(=O)=O)cc2)n1-c1cccc(F)c1 (racemic) for Prostaglandin G/H synthase 2 (Mus musculus) (UniProt Q05769).
Response: 100

Request: Request body: readout inhibition, system Prostaglandin G/H synthase 2 (Mus musculus) (UniProt Q05769), query `Cc1c(CC(=O)NCCO)cc(-c2ccc(S(C)(=O)=O)cc2)n1-c1cccc(F)c1` . Return the value.
Response: 95

Request: Short answer please: inhibition, Prostaglandin G/H synthase 2 (Mus musculus) (UniProt Q05769), entry `Cc1c(CC(=O)NCCO)cc(-c2ccc(S(C)(=O)=O)cc2)n1-c1ccc(F)cc1`
Response: 100

Request: Record lookup: for Prostaglandin G/H synthase 2 (Mus musculus) (UniProt Q05769), what inhibition belongs to Cc1c(CC(=O)NC(CO[N+](=O)[O-])C(=O)O)cc(-c2ccc(S(C)(=O)=O)cc2)n1-c1ccc(F)cc1 (centres undefined) ?
Response: 100

###

Test system: Mus musculus
Assay: Analgesic activity in Swiss albino mouse assessed as reduction of acetic acid-induced writhing at 40 mg/kg, po measured every 10 mins after 5 mins of administration relative to control
Assay type: functional
Design: scale not given: the % may be the effect or the level left
assay-endpoint: Activity
Record the result as a number with its unit.

Request: Notebook entry, Mus musculus assay: Activity of `Cc1c(CC(=O)NCCO[N+](=O)[O-])cc(-c2ccc(S(C)(=O)=O)cc2)n1-c1ccc(F)cc1` = ?
Response: 75%

Request: Which Activity is reported with Mus musculus for this entry: Cc1c(CC(=O)NC(CO)C(=O)O)cc(-c2ccc(S(C)(=O)=O)cc2)n1-c1ccc(F)cc1 (racemic) ?
Response: 60%

Request: Give the reported Activity for Cc1c(CC(=O)NC(CCO[N+](=O)[O-])C(=O)O)cc(-c2ccc(S(C)(=O)=O)cc2)n1-c1cccc(F)c1 (racemic) (system: Mus musculus).
Response: 23%

Hello, the source for this data is ChEMBL document CHEMBL3102735, in case you need it.
